pIC50 for UniProt P08581, merged from several publications.
pIC50: −log10 of the molar value.

- smiles_structure: "O=C(Nc1ccc(Oc2ccnc(NC(=O)N3CCOCC3)c2Cl)c(F)c1)c1cc2ncsc2n(-c2ccc(F)cc2)c1=O"
  pIC50: "> 8.00"
- smiles_structure: "Cc1ccc2nnc(Cc3ccc4ncc(-c5cnn(CC6CNC6)c5)cc4c3)n2n1"
  pIC50: "> 7.00"
- smiles_structure: "NS(=O)(=O)c1cccc(-c2ccc3nnc(Cc4ccc5ncccc5c4)n3n2)c1"
  pIC50: "> 7.00"

Tested system UniProt P08581; pIC50 recorded for `CCOc1ccncc1C(=O)Nc1cc(F)c(Oc2ccnc3cc(OCCCN(C)C)c(OC)cc23)cc1F` was ≥ 7.00
